# System: NCI/ADR-RES ovarian
# Experiment: NCI-60 one-dose screen, 48 h
# Protocol Conditions: 10 µM unless noted
Compounds without any hit were thinned out: in the full panel of roughly 83,000, 20% have a hit. Activity calls are given as the source filed them. Rule for the calls: active = growth percent below 10; inactive = the rest.
Labels: True (active), False (inactive)

> print(dat)
                                   molecule  category.label
1  Nc1c(C(=O)Nc2cccc3c2OCCO3)sc2nc3c(cc12)C(=O)CCC3           False
2             Oc1ccccc1N=Cc1c(O)ccc2ccccc12           False
3  CC/C(Cc1ccccc1)=C(/c1ccc(O)cc1)c1ccc(OCCN2CCCC2)cc1            True
4  C=C1CCC2C3(C)COC(c4ccc(OC)cc4Br)OC3CCC2(C)C1/C=C/C1=CCOC1=O (stereo not given)           False
5            O=C1O[C@H]([C@H](O)CO)C(O)=C1O           False

---

# System: ACHN renal
# Experiment: NCI-60 one-dose screen, 48 h (100 = growth as untreated, 0 = no growth, -100 = all killed)
# Protocol Conditions: 10 µM unless noted
This is part of a sample that, as a whole, favours compounds with a hit. Of some 83,000 tested, about 20% had one in any assay.

Compound	Assayed System	growth (%)
O=C(NC(Cc1ccccc1)C(=O)CCl)OCc1ccccc1 (stereo unspecified)	ACHN renal	72
COc1cccc2c1C(=O)c1c(O)c3c(c(O)c1C2=O)C[C@@](O)(/C(C)=N/NC(=O)c1ccc(Cl)cc1)C[C@@H]3OC1CC(N)C(O)C(C)O1 (stereo partly specified)	ACHN renal	-36.3
Cc1ccc(SCN2CCN(c3cccc(Cl)c3)CC2)cc1	ACHN renal	104
CCc1ccccc1NC(=O)c1sc2nc3c(cc2c1N)C(=O)CCC3	ACHN renal	58.4
O=c1c(/C=C/c2ccco2)nnc(SCCN2CCOCC2)n1/N=C/c1ccc([N+](=O)[O-])cc1	ACHN renal	99.7
O=C(/C=C/c1cccc(Br)c1)c1ccccc1	ACHN renal	95.7
COc1ccc2nc3cc(Cl)ccc3c(N3CCN(c4nccc(NCc5ccccc5)n4)CC3)c2c1	ACHN renal	68.5
COc1cnc2c(c1)C(=O)c1c-2n(CCCN2CCNCC2)c(=O)c2cc([N+](=O)[O-])ccc12	ACHN renal	-88.4
CCCNc1nc(SC)nc(-c2cccc(N)c2)c1C#N	ACHN renal	97.7
COC(=O)[C@@H]1CC[C@]2(C)[C@H](CC[C@@H]3O[C@@]32C)[C@@]1(C)CC(=O)c1ccoc1	ACHN renal	105
Cc1ccc(/C=C2\Oc3cc(OCC(=O)c4ccc(Cl)cc4)ccc3C2=O)cc1	ACHN renal	95.2

---

# System: SW-620 colon
# Experiment: NCI-60 one-dose screen, 48 h (100 = growth as untreated, 0 = no growth, -100 = all killed)
# Protocol Conditions: 10 µM unless noted
Compounds without any hit were thinned out: in the full panel of roughly 83,000, 20% have a hit. Active and inactive are the calls of the source. How the source made its calls: active means growth percent below 10; inactive means the rest.
Item-by-item account of growth
Metric: growth

> print(dat)
                                        smi           reading
1            CCOC(=O)C(=Cc1ccccc1F)C(=O)OCC   107% (inactive)
2  CC(=O)C1=C(O)C=C2Oc3c(C(=O)/C=C/c4cc(Cl)cc(Cl)c4)c(O)c(C)c(O)c3[C@]2(C)C1=O   0.897% (active)
3                  C#Cc1nc2ccccc2c(=O)[nH]1   -63.7% (active)
4  Nc1c(C(=O)Nc2cccc3c2OCCO3)sc2nc3c(cc12)CN(Cc1ccccc1)CC3  47.6% (inactive)
5                    Cc1nc2nc(N)nc(N)c2nc1C   100% (inactive)
6     Cc1ccc2c(NCCCN(C)C)c3c(C)nn(C)c3nc2c1  23.5% (inactive)
